property.measured: melting point (°C)
Write it as a number; the unit °C goes unstated.

Query: melting point; subject: CCc1cc2cc(C(=O)Nc3ccc(C(=O)O)c(O)c3)c(=O)oc2cc1OC [Compound 26]
266

Repeat for the following compound: CCOC(=O)c1cc2cc(Cl)c(O)c([N+](=O)[O-])c2oc1=O [Compound 241]
195

Repeat for the following compound: CCOC(=O)c1cc2cc([N+](=O)[O-])c(OC)c(OC)c2oc1=O [Compound 227]
191

Repeat for the following compound: CCOC(=O)c1cc2cc([N+](=O)[O-])c(OC)c([N+](=O)[O-])c2oc1=O
152

Repeat for the following compound: CCOC(=O)c1cc2cc(CC)c(O)c([N+](=O)[O-])c2oc1=O [Compound 233]
143

Repeat for the following compound: CCOC(=O)c1cc2cc([N+](=O)[O-])c(O)c([N+](=O)[O-])c2oc1=O
176
